Hey, just so you know, these numbers are from patent EP4725957A1.

# Test system: Escherichia coli ATCC BAA-2523
# Type: cell-based
# run_parameters: ATCC BAA-2523
Bridge positions count the residues as written; N and C are the ends. Square brackets hold non-standard residues; d marks the D form. Peptide text beside a SMILES is read from it. * marks the point of attachment. Nonanoyl = CCCCCCCCC(=O)*; X1 = CC[C@H](C)CCCCC(=O)*; Orn = NCCC[C@H](N)C(=O)O; dDap = NC[C@@H](N)C(=O)O; Dab = NCC[C@H](N)C(=O)O
measurement_name: MIC (µg/mL)
Give the value, in units of µg/mL, as a plain number.

Inquiry: Write down MIC measured for item CCCCCCCCC(=O)N[C@@H](CCN)C(=O)N[C@H](C(=O)N[C@H](CN)C(=O)N[C@H]1CCNC(=O)[C@H]([C@@H](C)O)NC(=O)[C@H](CCN)NC(=O)[C@H](CCN)NC(=O)[C@H](CC(C)C)NC(=O)[C@@H](Cc2ccccc2)NC(=O)[C@H](CCN)NC1=O)[C@@H](C)O [Compound 35] (Nonanoyl-[Dab]T[dDap][Dab][Dab][dF]L[Dab][Dab]T; lactam 4-C)
Reply text: 0.06

Inquiry: Kindly indicate its recorded MIC. Item: CC[C@H](C)CCCCC(=O)N[C@@H](CCCN)C(=O)N[C@H](C(=O)N[C@H](CO)C(=O)N[C@H]1CCNC(=O)[C@H]([C@@H](C)O)NC(=O)[C@H](CCN)NC(=O)[C@H](CCN)NC(=O)[C@H]([C@@H](C)O)NC(=O)[C@@H](Cc2ccccc2)NC(=O)[C@H](CCN)NC1=O)[C@@H](C)O [Compound 56] (X1-[Orn]T[dS][Dab][Dab][dF]T[Dab][Dab]T; lactam 4-C)
Reply text: 0.125

* * *

Please respond with reported MIC for every item in the list.
# Tested on: Escherichia coli ATCC BAA-2523
# Format: cell-based
# run_parameters: ATCC BAA-2523
Bridge positions count the residues as written; N and C are the ends. Square brackets hold non-standard residues; d marks the D form. Peptide text beside a SMILES is read from it. * marks the point of attachment. Heptanoyl(6-Me) = CC(C)CCCCC(=O)*; Sulfomethyl = O=S(=O)(O)C*; Nonanoyl = CCCCCCCCC(=O)*; dDab = NCC[C@@H](N)C(=O)O; Heptanoyl = CCCCCCC(=O)*; Orn = NCCC[C@H](N)C(=O)O; Dab = NCC[C@H](N)C(=O)O; Dap = NC[C@H](N)C(=O)O
Give the value, in units of mg/L, as a plain number.

Inquiry: Give the reported value of MIC for this record: CCCCCCCCC(=O)N[C@@H](CN)C(=O)N[C@H](C(=O)N[C@H](CCN)C(=O)N[C@H]1CCNC(=O)[C@H]([C@@H](C)O)NC(=O)[C@H](CCN)NC(=O)[C@H](CCN)NC(=O)[C@H](CC(C)C)NC(=O)[C@@H](CC(C)C)NC(=O)[C@H](CCN)NC1=O)[C@@H](C)O [Compound 100] (Nonanoyl-[Dap]T[dDab][Dab][Dab][dL]L[Dab][Dab]T; lactam 4-C)
Reply text: 0.125

Inquiry: Check the records and state MIC for CCCCCCC(=O)N[C@@H](CCN)C(=O)N[C@H](C(=O)N[C@H](CO)C(=O)N[C@H]1CCNC(=O)[C@H]([C@@H](C)O)NC(=O)[C@H](CCN)NC(=O)[C@H](CCN)NC(=O)[C@H]([C@@H](C)O)NC(=O)[C@@H](Cc2ccccc2)NC(=O)[C@H](CCCN)NC1=O)[C@@H](C)O [Compound 69] (Heptanoyl-[Dab]T[dS][Dab][Orn][dF]T[Dab][Dab]T; lactam 4-C)
Reply text: 0.5

Inquiry: Write down MIC measured for item CC(C)CCCCC(=O)N[C@@H](CCN)C(=O)N[C@H](C(=O)N[C@H](CO)C(=O)N[C@H]1CCNC(=O)[C@H]([C@@H](C)O)NC(=O)[C@H](CCN)NC(=O)[C@H](CCN)NC(=O)[C@H]([C@@H](C)OCS(=O)(=O)O)NC(=O)[C@@H](Cc2ccccc2)NC(=O)[C@H](CCN)NC1=O)[C@@H](C)O [Compound 105] ({Heptanoyl(6-Me)}-[Dab]T[dS][Dab][Dab][dF]T(Sulfomethyl)[Dab][Dab]T; lactam 4-C)
Reply text: 0.03

Inquiry: Please look at this molecule and report its MIC: CC(C)CCCCC(=O)N[C@@H](CCN)C(=O)N[C@H](C(=O)N[C@H](CO)C(=O)N[C@H]1CCNC(=O)[C@H]([C@@H](C)O)NC(=O)[C@H](CCCN)NC(=O)[C@H](CCN)NC(=O)[C@H]([C@@H](C)O)NC(=O)[C@@H](Cc2ccccc2)NC(=O)[C@H](CCN)NC1=O)[C@@H](C)O [Compound 87] ({Heptanoyl(6-Me)}-[Dab]T[dS][Dab][Dab][dF]T[Dab][Orn]T; lactam 4-C)
Reply text: 0.03

* * *

For each record, write down the corresponding MIC.
# Tested on: Acinetobacter baumannii ABA19-1
# Type: cell-based
# run_parameters: ABA19-1
# Method: The minimal inhibitory concentration (MIC) was determined by the broth microdilution method according to the recommended procedures of the Clinical and Laboratory Standards Institute (CLSI). An appropriate amount of the cyclic lipopeptide compounds prepared in Examples 1-120 and the reference standards were weighed and dissolved in sterile pure water. […]
Bridge positions count the residues as written; N and C are the ends. Square brackets hold non-standard residues; d marks the D form. Peptide text beside a SMILES is read from it. * marks the point of attachment. Heptanoyl(6-Me) = CC(C)CCCCC(=O)*; dOrn = NCCC[C@@H](N)C(=O)O; X1 = CC[C@H](C)CCCCC(=O)*; dDab = NCC[C@@H](N)C(=O)O; Octanoyl = CCCCCCCC(=O)*; Orn = NCCC[C@H](N)C(=O)O; Dab = NCC[C@H](N)C(=O)O; Dap = NC[C@H](N)C(=O)O
State just the number; it will be interpreted in mg/L.

Inquiry: Look up MIC of CCCCCCCC(=O)N[C@@H](CCN)C(=O)N[C@H](C(=O)N[C@H](CCCN)C(=O)N[C@H]1CCNC(=O)[C@H]([C@@H](C)O)NC(=O)[C@H](CCN)NC(=O)[C@H](CCN)NC(=O)[C@H]([C@@H](C)O)NC(=O)[C@@H](Cc2ccccc2)NC(=O)[C@H](CCN)NC1=O)[C@@H](C)O [Compound 23] (Octanoyl-[Dab]T[dOrn][Dab][Dab][dF]T[Dab][Dab]T; lactam 4-C) and report it.
Reply text: 0.125

Inquiry: Quickly give me recorded MIC for CC[C@H](C)CCCCC(=O)N[C@@H](CCN)C(=O)N[C@H](C(=O)N[C@H](CO)C(=O)N[C@H]1CCNC(=O)[C@H]([C@@H](C)O)NC(=O)[C@H](CCN)NC(=O)[C@H](CN)NC(=O)[C@H]([C@@H](C)O)NC(=O)[C@@H](Cc2ccccc2)NC(=O)[C@H](CCN)NC1=O)[C@@H](C)O [Compound 71] (X1-[Dab]T[dS][Dab][Dab][dF]T[Dap][Dab]T; lactam 4-C)
Reply text: 0.06

Inquiry: Write down MIC measured for item CC(C)CCCCC(=O)N[C@@H](CCN)C(=O)N[C@H](C(=O)N[C@@H](CCCN)C(=O)N[C@H]1CCNC(=O)[C@H]([C@@H](C)O)NC(=O)[C@H](CCN)NC(=O)[C@H](CCN)NC(=O)[C@H]([C@@H](C)O)NC(=O)[C@@H](Cc2ccccc2)NC(=O)[C@H](CCN)NC1=O)[C@@H](C)O [Compound 27] ({Heptanoyl(6-Me)}-[Dab]T[Orn][Dab][Dab][dF]T[Dab][Dab]T; lactam 4-C)
Reply text: 0.125

Inquiry: Identify the reported MIC for the following entry. CC[C@H](C)CCCCC(=O)N[C@@H](CN)C(=O)N[C@H](C(=O)N[C@H](CCN)C(=O)N[C@H]1CCNC(=O)[C@H]([C@@H](C)O)NC(=O)[C@H](CCN)NC(=O)[C@H](CCN)NC(=O)[C@H](CC(C)C)NC(=O)[C@@H](CC(C)C)NC(=O)[C@H](CCN)NC1=O)[C@@H](C)O [Compound 96] (X1-[Dap]T[dDab][Dab][Dab][dL]L[Dab][Dab]T; lactam 4-C)
Reply text: 0.03

Inquiry: Note MIC for the molecule shown: CCCCCCCC(=O)N[C@@H](CCCN)C(=O)N[C@H](C(=O)N[C@H](CO)C(=O)N[C@H]1CCNC(=O)[C@H]([C@@H](C)O)NC(=O)[C@H](CCN)NC(=O)[C@H](CCN)NC(=O)[C@H]([C@@H](C)O)NC(=O)[C@@H](Cc2ccccc2)NC(=O)[C@H](CCN)NC1=O)[C@@H](C)O [Compound 58] (Octanoyl-[Orn]T[dS][Dab][Dab][dF]T[Dab][Dab]T; lactam 4-C)
Reply text: 0.25
